experimental.target: CyP-D (Rattus norvegicus)
Construct: Mitochondria were isolated from fresh rat liver; from tissue; host or cells: rat liver mitochondria
Sequence (P29117 30-206): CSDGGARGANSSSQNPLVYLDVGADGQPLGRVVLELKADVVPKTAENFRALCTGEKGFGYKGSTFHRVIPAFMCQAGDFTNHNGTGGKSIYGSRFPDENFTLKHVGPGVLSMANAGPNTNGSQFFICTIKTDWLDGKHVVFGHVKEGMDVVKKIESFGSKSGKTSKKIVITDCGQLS
Format: biochemical
study.conditions: mitochondria isolated from rat liver, 190 μM calcium, swelling as decline in A540
Quick reference: CYP-D Inhibition (% Potency Vs CsA) of the listed items.
// return numeric value only (unit: %, not printed)

molecule	quantity.name	reported.result
CCC1NC(=O)C(C(O)C(C)CC=CCCCCCCCCCC(=O)N(C)C)N(C)C(=O)C(C(C)C)N(C)C(=O)C(CC(C)C)N(C)C(=O)C(CC(C)C)N(C)C(=O)C(C)NC(=O)C(C)NC(=O)C(CC(C)C)N(C)C(=O)C(C(C)C)NC(=O)C(CC(C)C)N(C)C(=O)CN(C)C1=O (centres unmarked)	CYP-D Inhibition (% Potency Vs CsA)	55.8

# ---- query molecule ----
// output CYP-D Inhibition (% Potency Vs CsA); input CCCCCCCC=CCC(C)C(O)C1C(=O)NC(CC)C(=O)N(C)CC(=O)N(C)C(CC(C)C)C(=O)NC(C(C)C)C(=O)N(C)C(CC(C)C)C(=O)NC(C)C(=O)NC(C)C(=O)N(C)C(CC(C)C)C(=O)N(C)C(CC(C)C)C(=O)N(C)C(C(C)C)C(=O)N1C (centres unmarked) ; system CyP-D (Rattus norvegicus)
1.2
